Below, each entry is listed with its recorded pEC50.
target: human DHODH (Homo sapiens); assay: DHODH Enzymatic Assay; conditions: purified human DHODH; DCIP absorbance, end-point mode
Sequence (Q02127 whole entry): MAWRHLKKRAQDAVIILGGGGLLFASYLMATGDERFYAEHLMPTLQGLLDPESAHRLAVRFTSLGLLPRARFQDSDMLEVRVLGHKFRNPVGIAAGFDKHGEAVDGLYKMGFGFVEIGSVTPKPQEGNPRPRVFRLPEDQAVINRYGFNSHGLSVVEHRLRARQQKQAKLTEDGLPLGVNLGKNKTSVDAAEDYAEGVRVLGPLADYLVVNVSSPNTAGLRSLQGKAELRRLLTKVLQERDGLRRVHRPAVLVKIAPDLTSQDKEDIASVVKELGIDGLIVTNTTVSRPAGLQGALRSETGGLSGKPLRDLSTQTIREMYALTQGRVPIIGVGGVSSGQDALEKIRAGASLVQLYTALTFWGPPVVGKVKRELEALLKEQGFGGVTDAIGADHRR
pEC50: −log10 of the molar value.
measured-parameter: pEC50

{"columns": ["smiles-representation", "measured-parameter", "endpoint-value"],
 "data": [
  ["CCn1c(CO)nn(-c2nc(O[C@@H](C)C(F)(F)F)c(C(=O)Nc3c(Cl)n[nH]c3C(F)(F)F)cc2F)c1=O", "pEC50", 8.39],
  ["CCn1c(CO)nn(-c2nc(O[C@@H](C)C(F)(F)F)c(C(=O)Nc3nccnc3OC)cc2F)c1=O", "pEC50", 6.44],
  ["CCCn1c(CO)nn(-c2nc(O[C@@H](C)C(F)(F)F)c(C(=O)Nc3c(C)n[nH]c3Cl)cc2F)c1=O", "pEC50", 8.41],
  ["Cc1ccnc(Cl)c1NC(=O)c1cc(F)c(-n2nc(CO)n(C(C)C)c2=O)nc1O[C@@H](C)C(F)(F)F", "pEC50", 7.97]
]}

====

Below, each entry is listed with its recorded EC50.
molecular target: human DHODH (Homo sapiens); assay: DHODH Enzymatic Assay; conditions: purified human DHODH; DCIP absorbance, end-point mode
measured-parameter: EC50 (nM)

{"columns": ["molecule", "qualifier-symbol", "endpoint-value"],
 "data": [
  ["CCn1c(CO)nn(-c2nc(O[C@@H](C)C(F)(F)F)c(C(=O)Nc3c(C)ccnc3F)cc2F)c1=O [Example 42]", "=", 2.4],
  ["CCn1c(CO)nn(-c2nc(O[C@@H](C)C(F)(F)F)c(C(=O)Nc3cc(C#N)cnc3Cl)cc2F)c1=O [Example 75]", "=", 19.2],
  ["Cc1ccnc(Cl)c1NC(=O)c1cc(F)c(-n2nc(CF)n(CCCO)c2=O)nc1O[C@@H](C)C(F)(F)F [Example 101]", "=", 39.4],
  ["CCn1c(CO)nn(-c2nc(O[C@@H](C)C(F)(F)F)c(C(=O)Nc3ncnc(C)c3C)cc2F)c1=O [Example 43]", "=", 815],
  ["CCn1c(CO)nn(-c2nc(O[C@@H](C)C(F)(F)F)c(C(=O)Nc3c(Cl)ccc(C)c3C)cc2F)c1=O [Example 83]", "=", 0.69],
  ["CCn1c(CO)nn(-c2nc(O[C@@H](C)C(F)(F)F)c(C(=O)Nc3ccncc3Cl)cc2F)c1=O [Example 10]", "=", 22.9],
  ["CCn1c(CO)nn(-c2nc(OC3CC(F)(F)C3(F)F)c(C(=O)Nc3c(F)cccc3Cl)cc2F)c1=O (racemic) [Example 8]", "=", 22.1],
  ["CCn1c(CO)nn(-c2nc(O[C@@H](C)C(F)(F)F)c(C(=O)Nc3c[nH]nc3C#N)cc2F)c1=O [Example 100]", ">", 100],
  ["CCn1c(CO)nn(-c2nc(O[C@@H](C)C(F)(F)F)c(C(=O)Nc3c(C)ccnc3C)cc2F)c1=O [Example 18]", "=", 3.7],
  ["CCn1c(CO)nn(-c2nc(O[C@@H](C)C(F)(F)F)c(C(=O)Nc3csnc3C)cc2F)c1=O [Example 17]", "=", 30.9],
  ["CCn1c(CO)nn(-c2nc(O[C@@H](C)C(F)(F)F)c(C(=O)Nc3c[nH]nc3OC)cc2F)c1=O [Example 58]", "=", 5.8],
  ["CCn1c(CO)nn(-c2nc(O[C@@H](C)C(F)(F)F)c(C(=O)Nc3c(C)cc(C)nc3OC)cc2F)c1=O [Example 114]", "=", 0.415],
  ["CCn1c(CO)nn(-c2nc(O[C@@H](C)C(F)(F)F)c(C(=O)Nc3conc3C)cc2F)c1=O [Example 45]", "=", 142],
  ["CCn1c(CO)nn(-c2nc(O[C@@H](C)C(F)(F)F)c(C(=O)Nc3nc(OC)ncc3F)cc2F)c1=O [Example 82]", "=", 729],
  ["CCn1c(CO)nn(-c2nc(O[C@@H](C)C(F)(F)F)c(C(=O)Nc3c(C)n[nH]c3Cl)cc2F)c1=O [Example 25]", "=", 0.84],
  ["CCn1c(CO)nn(-c2nc(O[C@@H](C)C(F)(F)F)c(C(=O)Nc3cc(F)cnc3Cl)cc2F)c1=O [Example 78]", "=", 12.3],
  ["CCn1c(CO)nn(-c2nc(O[C@@H](C)C(F)(F)F)c(C(=O)Nc3c(F)cncc3C#N)cc2F)c1=O [Example 29]", "=", 2.5],
  ["CCCn1c(CF)nn(-c2nc(O[C@@H](C)C(F)(F)F)c(C(=O)Nc3c(C)ccnc3Cl)cc2F)c1=O [Example 92]", "=", 0.639],
  ["CCn1c(CO)nn(-c2nc(O[C@@H](C)C(F)(F)F)c(C(=O)Nc3cc(C)cnc3C)cc2F)c1=O [Example 51]", "=", 6.4],
  ["CCn1c(CO)nn(-c2nc(O[C@@H](C)C(F)(F)F)c(C(=O)Nc3c[nH]nc3C3CC3)cc2F)c1=O [Example 62]", "=", 2.7],
  ["CCn1c(CO)nn(-c2nc(O[C@@H](C)C(F)(F)F)c(C(=O)Nc3c(Cl)ccnc3OC)cc2F)c1=O [Example 126]", "=", 0.312]
]}

Provenance of the data: patent US20220089568A1
